tested on: FRK; settings: concentration: 1 μM, replicates: in singlicate; n = 1;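 further: KINOMEscan kinase panel screen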
MEASURE: %Inh (%)

>  <COMPOUND>
Cc1ccccc1-n1cnc2c(N)ncnc21

>  <VALUE UNIT>
%

>  <RECORDED MEASUREMENT>
0

$$$$
>  <COMPOUND>
Cn1ccc2ncnc(Oc3ccc(Nc4nc5ccccc5[nH]4)cc3)c21

>  <VALUE UNIT>
%

>  <RECORDED MEASUREMENT>
0

$$$$
>  <COMPOUND>
CCn1c(-c2ccccn2)nc2cnccc21

>  <VALUE UNIT>
%

>  <RECORDED MEASUREMENT>
17

$$$$
>  <COMPOUND>
COc1cccc(NC(=O)NC2CCN(c3ccnc(Nc4ccc(F)cc4)n3)C2)c1 (stereo not drawn)

>  <VALUE UNIT>
%

>  <RECORDED MEASUREMENT>
0

$$$$
>  <COMPOUND>
Cc1c(O)cccc1Nc1ccnc2ccc(C(F)(F)F)cc12.Cl

>  <VALUE UNIT>
%

>  <RECORDED MEASUREMENT>
79

$$$$
>  <COMPOUND>
COC(=O)c1c(-c2ccccc2)c2cc(C(=O)O)ccc2c(=O)n1Cc1ccccc1

>  <VALUE UNIT>
%

>  <RECORDED MEASUREMENT>
48

$$$$
>  <COMPOUND>
Fc1cc(Cl)ccc1Nc1ccnc2cc(-c3ccc(CN4CCCCC4)o3)ccc12

>  <VALUE UNIT>
%

>  <RECORDED MEASUREMENT>
4

$$$$
>  <COMPOUND>
Clc1cc(Cl)cc(Nc2ccnc(Nc3cc(Cl)cc(Cl)c3)n2)c1

>  <VALUE UNIT>
%

>  <RECORDED MEASUREMENT>
45

$$$$
>  <COMPOUND>
Cc1cc(NCC(c2ccccc2)c2ccccc2)nc(NCc2ccc(C(F)(F)F)cc2)n1

>  <VALUE UNIT>
%

>  <RECORDED MEASUREMENT>
0

$$$$
>  <COMPOUND>
CCn1c(-c2cccnc2O)nc2cnccc21

>  <VALUE UNIT>
%

>  <RECORDED MEASUREMENT>
0

$$$$
>  <COMPOUND>
COc1ccc(CNC(=O)NC2CCN(c3ccnc(Nc4cc(OC)c(OC)c(OC)c4)n3)C2)cc1 (stereo not drawn)

>  <VALUE UNIT>
%

>  <RECORDED MEASUREMENT>
5

$$$$
>  <COMPOUND>
Cl.c1ccc(-c2n[nH]cc2-c2ccnc(-c3ccc(CN4CCOCC4)cc3)c2)nc1

>  <VALUE UNIT>
%

>  <RECORDED MEASUREMENT>
0

$$$$

The measurements presented in this section are drawn from paper PMC5540273.
